Target: T1, DFNB31_3, Q9P202
T1 sequence (Q9P202 811-907, limits assumed, looked up): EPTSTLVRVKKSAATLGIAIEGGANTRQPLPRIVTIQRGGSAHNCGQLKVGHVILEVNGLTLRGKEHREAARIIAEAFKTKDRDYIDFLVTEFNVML
Experiment: holdup assay
Set-up: key: below the threshold = too weak to quantify, mostly under pKd 3.1 to 4
Conditions: plain residues with an end cap or a label only (N-terminal biotin on a linker: ado-ado)
metric name: pKd

1) HLRARKSEWV [GJD4, Q96KN9] | below the threshold
2) LPHGHSTTRV [NLGN4X, Q8N0W4] | 3.96
3) KSGKQTMLVV [TRIM29, Q14134;Q14134-2] | below the threshold
4) DTTVPESEDL [MYOZ2, Q9NPC6] | below the threshold
